system: nuOXPHOS transcripts; assay type: cell-based, mouse; settings: composite Z-score vs mock-treated (DMSO) wells; Conc 20 μM
Entries and their nucOX
Lab note: jot down the number only; don't add units.

Use these answered entries as a reference point.
Compound: C=C1[C@@H]2CC[C@@]3(C)[C@H](c4ccoc4)OC(=O)C[C@]13O[C@H]1CC(=O)C(C)(C)[C@H](CC(=O)OC)[C@]12C
nucOX: 0.729

Compound: CC(=O)O[C@@H]1CC[C@@]2(C)C(C[C@@H](OC(C)=O)[C@@]3(C)C4=CC(=O)O[C@@H](c5ccoc5)[C@]4(C)CCC23)C1(C)C (stereo partly drawn) [3alpha-acetoxydihydrodeoxygedunin]
nucOX: −1.123

Compound: CC(C)=CCCC1(C)C=Cc2c(O)c3c(c(CC=C(C)C)c2O1)OC12C(CC4CC1C(C)(C)OC2(C/C=C(/C)C(=O)O)C4O)C3=O (centres unmarked) [tetrahydrogambogic acid]
nucOX: −0.409

Compound: COC(=O)[C@@H]1OC(=O)C2OC23[C@@]1(C)CCC1[C@@]2(C)CCC(=O)C(C)(C)C2C[C@@H](OC(C)=O)[C@]13C (some centres unmarked) [dihydrogedunic acid, methyl ester]
nucOX: 0.141

Compound: Cc1cc(O)cc(O)c1C(=O)O
nucOX: −0.350

Compound: CC1(C)C2CC(=O)O[C@@]3(C)C4=CC(=O)O[C@@H](c5ccoc5)[C@]4(C)CCC3[C@@]2(C)C=C[C@H]1O (some centres unmarked)
nucOX: −1.558

Tell us which nucOX value is on record for "COc1cc(O)c2c(=O)cc(C)oc2c1CC=C(C)C"
0.328

Tell us which nucOX value is on record for "C=C(C)c1cc2cc(C(C)=O)c(O)cc2o1"
1.293
